target: PAK4 kinase domain (PAK4 KD) (Homo sapiens (Human)); experiment: PAK4 kinase domain enzymatic assay (coupled PK/LDH, NADH absorbance at 340 nm); type: biochemical; settings: PAK4 kinase domain, 25 nM PAK4 KD, 0.04 mM ATP, pH 7.5
Sequence (O96013 321-572): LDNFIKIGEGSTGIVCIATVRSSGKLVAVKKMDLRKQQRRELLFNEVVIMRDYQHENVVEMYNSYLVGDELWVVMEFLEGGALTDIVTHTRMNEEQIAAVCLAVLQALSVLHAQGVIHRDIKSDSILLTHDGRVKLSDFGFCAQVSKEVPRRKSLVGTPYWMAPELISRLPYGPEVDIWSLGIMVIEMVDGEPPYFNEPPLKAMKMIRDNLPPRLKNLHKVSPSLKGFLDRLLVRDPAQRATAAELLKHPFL
pKi: −log10 of the molar value.
Tag: t if measured pKi is not below 7, f if it is.

Worked examples, 3 molecules total:
Cc1cc(C)nc(Nc2n[nH]c3c2CN(C(=O)NC2C[C@@H]2c2ccccc2)C3(C)C)n1 (stereo partly shown)
f
CN(C)C[C@@H](NC(=O)N1Cc2c(Nc3ncnc4sccc34)n[nH]c2C1(C)C)c1ccccc1
t
CN(C)C[C@@H](NC(=O)N1Cc2c(Nc3ncnc4ccoc34)n[nH]c2C1(C)C)c1ccccc1
t

In the following, a different molecule is considered.
Query block: Please tell me: is the molecule `CN(C)C[C@@H](OC(=O)N1Cc2c(Nc3ccnc(C(F)(F)F)n3)n[nH]c2C1(C)C)c1ccccc1` at or over 7 in terms of pKi?
Result block: t
